assay: Stability of peptides in mice serum (HPLC of remaining peptide, t1/2 by CompuSyn); type: in vitro ADME; conditions: mouse; mice serum, final 10%, peptide 0.5 mg/ml in dH2O
Where no end group is shown, it is not given here.
Assay readout: half-life (min)
Please give a number only; it is taken to be in min.

Record Ac-NYRWRCKNQN [Ac-CPPecp] . Reported half-life: 1.79

###

experiment: Stability of peptides in mice serum (HPLC of remaining peptide, t1/2 by CompuSyn); format: in vitro ADME; details: mouse; mice serum, final 10%, peptide 0.5 mg/ml in dH2O
Where a SMILES comes first, the peptide text is derived from it. The star is where a group is joined. FITC = O=C1OC2(c3ccc(O)cc3Oc3cc(O)ccc32)c2ccc(NC(=S)*)cc21
Assay readout: half-life (min)
Please give a number only; it is taken to be in min.

Record N=C(N)NCCC[C@H](NC(=O)[C@H](Cc1c[nH]c2ccccc12)NC(=O)[C@H](CCCNC(=N)N)NC(=O)[C@H](Cc1ccc(O)cc1)NC(=O)[C@H](CC(N)=O)NC(=S)Nc1ccc2c(c1)C(=O)OC21c2ccc(O)cc2Oc2cc(O)ccc21)C(=O)N[C@@H](CS)C(=O)N[C@@H](CCCCN)C(=O)N[C@@H](CC(N)=O)C(=O)N[C@@H](CCC(N)=O)C(=O)N[C@@H](CC(N)=O)C(=O)O [FITC-CPPecp] ({FITC}-NYRWRCKNQN-OH; C-terminus assumed) . Reported half-life: 3.28

###

assay: Stability of peptides in mice serum (HPLC of remaining peptide, t1/2 by CompuSyn); format: in vitro ADME; conditions: mouse; mice serum (CD-1 (ICR)), final 50%, room temperature
Assay readout: half-life (min)
Please give a number only; it is taken to be in min.

Record H-NYRWRCKNQN-OH [CPPecp, NH2-NYRWRCKNQN-COOH (SEQ. ID NO:2), reference compound] . Reported half-life: 2.34
